Cited source: the supplement of paper PMC9112550

tested on: Escherichia coli TOP10; assay: shrunken log2 fold change of peptide-encoding DNA abundance (4.5 h post-induction vs induction); higher = less antimicrobial activity (less host growth inhibition); details: time post-induction: 4.5 h; library: site-saturation at positions 5, 18, 19, 20;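 also: peptides expressed intracellularly from a pBAD plasmid library in pooled LB shake-flask culture, induced with 0.3% L-arabinose, DNA abundance read by NGS, three biological replicates, DESeq2 with apeglm shrinkage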
measured-parameter: shrunken log2 fold change
Answer with a number only.

Below, each entry is followed by its recorded shrunken log2 fold change result.
RRIRLRPPRLPRPRPRPLVMPRP | -0.0627
RRIRHRPPRLPRPRPRPASRPRP | 0.103
RRIRTRPPRLPRPRPRPEMNPRP | 0.00876
RRIRRRPPRLPRPRPRPVWTPRP | 0.436

Record summary for `RRIRNRPPRLPRPRPRPHQAPRP` : reported shrunken log2 fold change = -0.0146
